Attribute: IC50
Target: P-glycoprotein (P-gp) (Homo sapiens)
Construct: The resistant CEM/vcr1000 line was obtained by stepwise selection in vincristine containing medium; endogenous in cells; host or cells: CCRF-CEM vcr1000 (CEM/vcr1000), a human T-lymphoblast line made multidrug resistant by vincristine selection
Sequence (P08183 whole entry): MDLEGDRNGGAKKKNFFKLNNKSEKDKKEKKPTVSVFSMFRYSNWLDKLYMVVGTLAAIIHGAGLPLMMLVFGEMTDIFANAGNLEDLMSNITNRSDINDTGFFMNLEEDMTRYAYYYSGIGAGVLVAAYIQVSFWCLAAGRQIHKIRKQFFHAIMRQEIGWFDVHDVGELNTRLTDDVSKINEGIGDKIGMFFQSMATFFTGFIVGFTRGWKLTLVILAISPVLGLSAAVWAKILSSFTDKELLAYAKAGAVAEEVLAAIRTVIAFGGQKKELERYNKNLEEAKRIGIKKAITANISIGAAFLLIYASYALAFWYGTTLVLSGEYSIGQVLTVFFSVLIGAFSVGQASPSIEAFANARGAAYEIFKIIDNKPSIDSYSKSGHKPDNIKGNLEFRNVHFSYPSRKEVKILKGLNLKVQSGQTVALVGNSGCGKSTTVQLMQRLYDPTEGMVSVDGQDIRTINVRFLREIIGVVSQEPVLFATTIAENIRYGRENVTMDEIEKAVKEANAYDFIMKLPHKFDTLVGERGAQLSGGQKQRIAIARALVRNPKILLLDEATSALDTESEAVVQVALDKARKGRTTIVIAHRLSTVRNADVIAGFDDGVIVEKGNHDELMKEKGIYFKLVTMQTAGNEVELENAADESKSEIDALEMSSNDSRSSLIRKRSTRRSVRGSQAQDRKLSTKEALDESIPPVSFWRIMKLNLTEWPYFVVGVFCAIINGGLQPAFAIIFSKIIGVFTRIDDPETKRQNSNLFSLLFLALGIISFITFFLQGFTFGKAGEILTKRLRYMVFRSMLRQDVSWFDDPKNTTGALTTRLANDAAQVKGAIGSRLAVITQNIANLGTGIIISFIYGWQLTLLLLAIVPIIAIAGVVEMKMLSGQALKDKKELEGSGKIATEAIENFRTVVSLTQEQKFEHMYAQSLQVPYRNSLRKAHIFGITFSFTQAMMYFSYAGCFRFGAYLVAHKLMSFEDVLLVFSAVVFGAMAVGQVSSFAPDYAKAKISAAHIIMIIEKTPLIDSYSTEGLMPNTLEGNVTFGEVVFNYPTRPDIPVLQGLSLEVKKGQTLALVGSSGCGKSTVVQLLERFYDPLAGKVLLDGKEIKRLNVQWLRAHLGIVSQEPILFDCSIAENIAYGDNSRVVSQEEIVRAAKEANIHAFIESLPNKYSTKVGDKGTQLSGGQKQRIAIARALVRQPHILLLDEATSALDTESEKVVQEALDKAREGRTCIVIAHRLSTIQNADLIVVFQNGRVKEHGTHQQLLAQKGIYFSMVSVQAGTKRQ
Assay: Daunorubicin efflux inhibition in multidrug resistant CCRF-CEM vcr1000 cells
Assay type: cell-based
Conditions: SM Table 2; logarithm of the measured IC50 (μM) of Table 1; read-out: Exp. LogIC50 (converted)
Just the number please, in µM, no unit attached.

// solved cases for IC50 follow
CC(C)[C@@H]1C(=O)O[C@@H]2[C@H](c3cc(C#N)ccc3OC2(C)C)N1C [18b]	27.5
CC(C)[C@H]1CO[C@H]2[C@H](N1)c1cc(C#N)ccc1OC2(C)C [21a]	49
CC(C)[C@@H]1C(=O)O[C@H]2[C@@H](c3cc(C#N)ccc3OC2(C)C)N1C [18a]	77.6
CC(C)[C@H]1C(=O)O[C@H]2[C@@H](c3cc(C#N)ccc3OC2(C)C)N1C [16a]	47.9
CC(C)[C@H]1C(=O)O[C@@H]2[C@H](c3cc(C#N)ccc3OC2(C)C)N1C [16b]	16.6

Item: CC(C)[C@H]1N[C@H]2c3cc(C#N)ccc3OC(C)(C)[C@@H]2OC1=O [17b] | IC50: 9.55

Item: CC(C)[C@H]1CO[C@@H]2[C@@H](N1)c1cc(C#N)ccc1OC2(C)C [21b] | IC50: 43.7

###

Target: P-glycoprotein (P-gp) (Homo sapiens)
Construct: The resistant CEM/vcr1000 line was obtained by stepwise selection in vincristine containing medium; endogenous in cells; host or cells: CCRF-CEM vcr1000 (CEM/vcr1000), a human T-lymphoblast line made multidrug resistant by vincristine selection
Assay: Daunorubicin efflux inhibition in multidrug resistant CCRF-CEM vcr1000 cells
Type: cell-based
Conditions: SM Table 2; logarithm of the measured IC50 (μM) of Table 1
Attribute: Exp. LogIC50
The answer should be a number; do not append a unit.

CC(C)[C@@H](N[C@H]1c2cc(C#N)ccc2OC(C)(C)[C@@H]1O)C(=O)OC(C)(C)C [10b]	-0.13
C[C@H](N[C@@H]1c2cc(C#N)ccc2OC(C)(C)[C@H]1O)C(=O)OC(C)(C)C	-1.47
CC(C)(C)OC(=O)[C@H](Cc1ccccc1)N[C@@H]1c2cc(C#N)ccc2OC(C)(C)[C@H]1O	0.26

Item: CC(C)[C@@H](CO)N(C)[C@H]1c2cc(C#N)ccc2OC(C)(C)[C@@H]1O [20b] | Exp. LogIC50: -0.83

Item: CC(C)[C@@H](CO)N[C@H]1c2cc(C#N)ccc2OC(C)(C)[C@@H]1O [19b] | Exp. LogIC50: -2.01

Item: CC(C)[C@@H](CCl)N(C)[C@H]1c2cc(C#N)ccc2OC(C)(C)[C@@H]1O [22b] | Exp. LogIC50: -1.65

Item: `C[C@@H](C(=O)OC(C)(C)C)N(C)[C@@H]1c2cc(C#N)ccc2OC(C)(C)[C@H]1O` | Exp. LogIC50: -0.60

Item: `CC(C)(C)OC(=O)[C@H](Cc1ccccc1)N[C@H]1c2cc(C#N)ccc2OC(C)(C)[C@@H]1O` | Exp. LogIC50: 0.11
